# inhibition at 10 µM values compiled below
System Name: UniProtKB Q9NYV4
Assay Procedure: Biochemical assay for CDK12 (LANCE TR-FRET, IC50 determination)
Assay Setup: compound at 10 μM; read-out: CDK12 % Inhibition @ 10 μM
Express your answer in %, writing the number without its unit.

Example entries begin here.
>>> obs_value("CN1CC[C@@H](Oc2cc(NC(=O)Cc3ccc(C4=CCCN(C#N)C4)nc3)ncc2Cl)C1 [Compound 38]")
88
>>> obs_value("CN1CCC[C@H](Oc2cc(NC(=O)Cc3ccc(C4=CCN(C#N)CC4)nc3)ncc2Cl)C1 [Compound 33]")
88
>>> obs_value("CNC(=O)[C@H](C)Oc1cc(NC(=O)Cc2ccc(-c3ccnc(C#N)c3)nc2)ncc1Cl [Compound 148]")
89
>>> obs_value("COc1cc(NC(=O)Cc2ccc(-c3cc(N4CC(OC)C4)cc(C#N)n3)nc2)ncc1Cl [Compound 193]")
68
>>> obs_value("CN1CCC(Oc2cc(NC(=O)Cc3ccc(C4CCN(C#N)CC4)nc3)ncc2Cl)CC1 [Compound 129]")
94
>>> obs_value("N#Cc1ccc(-c2ccc(CC(=O)Nc3cc(O[C@@H]4CCOC4)c(Cl)cn3)cn2)cn1 [Compound 146]")
90
>>> obs_value("Cc1cc(CC(=O)Nc2ccc(Cl)cn2)cnc1C1=CCN(C#N)CC1 [Compound 13]")
75
>>> obs_value("N#CN1CCC=C(c2ccc(CC(=O)Nc3cc(O[C@@H]4CCOC4)c(Cl)cn3)cn2)C1 [Compound 40]")
91

# next molecule below
Give me measured inhibition at 10 µM, please, for this molecule: N#CN1CCCC(c2ccc(CC(=O)Nc3cc(O[C@@H]4CCOC4)c(Cl)cn3)cn2)C1 (single isomer, unassigned) [Compound 93]
73

---

The reader will find reported inhibition at 10 µM values listed item by item below.
System Name: CDK12 (Homo sapiens)
Sequence (Q9NYV4 whole entry): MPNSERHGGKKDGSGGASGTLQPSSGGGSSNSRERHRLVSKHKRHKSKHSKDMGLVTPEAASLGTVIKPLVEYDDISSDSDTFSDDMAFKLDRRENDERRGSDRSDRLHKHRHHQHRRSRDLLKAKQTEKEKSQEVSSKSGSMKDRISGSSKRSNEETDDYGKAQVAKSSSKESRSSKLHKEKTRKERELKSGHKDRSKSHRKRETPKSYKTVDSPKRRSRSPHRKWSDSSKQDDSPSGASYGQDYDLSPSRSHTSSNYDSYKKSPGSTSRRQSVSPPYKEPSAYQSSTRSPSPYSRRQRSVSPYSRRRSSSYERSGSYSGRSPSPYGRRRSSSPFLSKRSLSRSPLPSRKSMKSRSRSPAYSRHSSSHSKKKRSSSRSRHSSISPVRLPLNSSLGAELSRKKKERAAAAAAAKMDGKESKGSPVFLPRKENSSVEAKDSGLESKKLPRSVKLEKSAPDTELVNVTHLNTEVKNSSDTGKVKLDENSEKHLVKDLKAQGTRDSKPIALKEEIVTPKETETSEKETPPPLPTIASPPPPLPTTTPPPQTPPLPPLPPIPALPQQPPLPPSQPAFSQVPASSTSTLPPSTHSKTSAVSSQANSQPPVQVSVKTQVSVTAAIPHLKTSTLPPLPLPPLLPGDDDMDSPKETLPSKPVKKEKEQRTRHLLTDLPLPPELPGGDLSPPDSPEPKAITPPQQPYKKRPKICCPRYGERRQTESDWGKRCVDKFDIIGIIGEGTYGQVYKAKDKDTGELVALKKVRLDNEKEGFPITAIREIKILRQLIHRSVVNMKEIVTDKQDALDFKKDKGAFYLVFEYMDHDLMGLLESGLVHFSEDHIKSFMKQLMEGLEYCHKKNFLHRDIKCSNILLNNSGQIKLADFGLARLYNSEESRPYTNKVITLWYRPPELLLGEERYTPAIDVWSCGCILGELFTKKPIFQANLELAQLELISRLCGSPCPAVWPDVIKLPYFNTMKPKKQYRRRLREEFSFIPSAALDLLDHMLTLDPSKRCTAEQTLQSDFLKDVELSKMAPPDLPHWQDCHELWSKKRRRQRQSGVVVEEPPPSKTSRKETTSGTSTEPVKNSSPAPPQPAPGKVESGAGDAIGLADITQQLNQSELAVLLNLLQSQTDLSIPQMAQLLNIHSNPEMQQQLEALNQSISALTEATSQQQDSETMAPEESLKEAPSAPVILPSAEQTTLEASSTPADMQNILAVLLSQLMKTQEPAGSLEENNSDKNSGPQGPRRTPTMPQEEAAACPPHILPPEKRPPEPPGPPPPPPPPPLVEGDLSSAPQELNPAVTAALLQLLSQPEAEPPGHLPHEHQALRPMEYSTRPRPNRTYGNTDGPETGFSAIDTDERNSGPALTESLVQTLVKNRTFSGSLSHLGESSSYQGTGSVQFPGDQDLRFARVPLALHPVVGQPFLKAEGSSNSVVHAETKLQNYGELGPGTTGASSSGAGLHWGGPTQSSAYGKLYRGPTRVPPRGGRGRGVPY
Sequence (O75909 whole entry partner): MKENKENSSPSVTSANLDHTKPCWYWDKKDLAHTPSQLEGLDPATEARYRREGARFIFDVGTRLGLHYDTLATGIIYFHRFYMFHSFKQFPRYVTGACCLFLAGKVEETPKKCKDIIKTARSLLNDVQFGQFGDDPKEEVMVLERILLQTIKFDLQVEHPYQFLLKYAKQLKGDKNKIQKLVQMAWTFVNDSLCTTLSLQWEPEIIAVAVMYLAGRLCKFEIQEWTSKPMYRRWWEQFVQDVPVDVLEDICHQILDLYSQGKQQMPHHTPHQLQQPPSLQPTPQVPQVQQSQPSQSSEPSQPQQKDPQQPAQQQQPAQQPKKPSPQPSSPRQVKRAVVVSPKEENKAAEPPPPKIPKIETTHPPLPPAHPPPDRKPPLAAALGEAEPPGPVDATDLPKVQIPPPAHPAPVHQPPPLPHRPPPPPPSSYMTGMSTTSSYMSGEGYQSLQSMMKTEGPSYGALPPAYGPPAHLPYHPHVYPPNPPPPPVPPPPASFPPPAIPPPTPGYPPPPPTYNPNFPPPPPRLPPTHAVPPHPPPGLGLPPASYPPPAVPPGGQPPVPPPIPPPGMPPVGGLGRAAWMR
Assay Procedure: Biochemical assay for CDK12 (LANCE TR-FRET, IC50 determination)
Assay Setup: compound at 10 μM; read-out: CDK12 % Inhibition @ 10 μM
Report the value in % with no unit label.

Here are 3 molecules together with their reported answers.
>>> obs_value("N#CN1CCCC(c2ccc(CC(=O)Nc3cc(O[C@H]4CCOC4)c(Cl)cn3)cn2)C1 (single isomer, unassigned) [Compound 96]")
91
>>> obs_value("COc1cc(CC(=O)Nc2cc(O[C@@H]3CCOC3)c(Cl)cn2)cnc1C1=CCN(C#N)CC1")
90
>>> obs_value("COc1cc(NC(=O)Cc2ccc(C3=CCCN(C#N)C3)cn2)ncc1Cl")
94

Specify reported inhibition at 10 µM for the molecule shown: COc1cc(NC(=O)C(C)c2ccc(C3=CCCN(C#N)C3)nc2)ncc1Cl (stereo not shown) [Compound 48]
90

For CN1CCC[C@@H](Oc2cc(NC(=O)Cc3ccc(C4=CCCN(C#N)C4)nc3)ncc2Cl)C1 , write its inhibition at 10 µM.
88

Name the recorded inhibition at 10 µM of the item CC1CC(Oc2cc(NC(=O)Cc3ccc(C4=CCCN(C#N)C4)nc3)ncc2Cl)CCN1C (stereo not shown) [Compound 63] in your answer.
92

Name the recorded inhibition at 10 µM of the item N#Cc1cc(-c2ccc(CC(=O)Nc3cc(O[C@@H]4CCOC4)c(Cl)cn3)cn2)ccn1 in your answer.
79

Input CC(C)(O)c1cc(NC(=O)Cc2ccc(C3=CCN(C#N)CC3)nc2)ncc1Cl , output reported inhibition at 10 µM.
96

Report inhibition at 10 µM, nothing else, for this molecule: N#CN1CC=C(c2ccc(CC(=O)Nc3cc(OC4CCOC4)c(Cl)cn3)cn2)CC1 (stereo not shown)
84

Read the entry COC[C@@H](C)Oc1cc(NC(=O)Cc2ccc(C3=CCCN(C#N)C3)nc2)ncc1Cl and write its reported inhibition at 10 µM.
95

Please report inhibition at 10 µM for the following molecule: COc1cc(NC(=O)Cc2ccc(-c3nc(C#N)ccc3C)nc2)ncc1Cl
76

Output measured inhibition at 10 µM for this item: CP(C)(=O)c1cc(NC(=O)Cc2ccc(C3=CCCN(C#N)C3)nc2)ncc1Cl
78

Assign inhibition at 10 µM to the following record: N#CN1CC=C(c2ccc(CC(=O)Nc3cc(OC4CCC4)c(Cl)cn3)cn2)CC1
95

Annotate the molecule CC(C)Oc1cc(NC(=O)Cc2ccc(C3=CCN(C#N)CC3)nc2)ncc1Cl with its measured inhibition at 10 µM.
94

Return inhibition at 10 µM for the following molecule: CNC(=O)[C@H](C)Oc1cc(NC(=O)Cc2ccc(-c3cnc(C#N)nc3)nc2)ncc1Cl
79

For the molecule COc1cc(CC(=O)Nc2cc(O[C@@H]3CCOC3)c(Cl)cn2)cnc1C1CCN(C#N)CC1 , report inhibition at 10 µM.
86
